These entries and their values trace back to PubChem BioAssay (NCATS).

# System: DIV14
# procedure.summary: qHTS profiling for inhibitors of Plasmodium falciparum proliferation (AID 504749); also: nearly all actives have a fitted effect of over 60% in size
# assay.conditions: P. falciparum in erythrocytes, SYBR Green DNA, 72 h; series mostly up to 28.7 µM
Inconclusive results are not listed. The source made the active and inactive calls. Calls follow the shape of the dose curve; as a rule, active = well fitted inhibition curve with a large enough effect; inconclusive = small, poorly fitted or top-dose-only effect; inactive = flat fitted curve, though single readings scatter.
Bench note: report the call from active, inactive

Past entries and their recorded results:
INSERT INTO assay_data (compound, label_value) VALUES
  ('CC#C[C@]1(O)CC[C@H]2[C@@H]3CCC4=CC(=O)CCC4=C3[C@@H](c3ccc(N(C)C)cc3)C[C@@]21C', 'active'),
  ('CN1CCN2c3ccccc3Cc3ccccc3C2C1 (configuration not stated)', 'inactive'),
  ('Cc1ccc(C(=O)Nc2ccc(S(=O)(=O)O)c3cc(S(=O)(=O)O)cc(S(=O)(=O)O)c23)cc1NC(=O)c1cccc(NC(=O)Nc2cccc(C(=O)Nc3cc(C(=O)Nc4ccc(S(=O)(=O)O)c5cc(S(=O)(=O)O)cc(S(=O)(=O)O)c45)ccc3C)c2)c1', 'inactive'),
  ('CN(C)CCCN1c2ccccc2CCc2ccc(Cl)cc21', 'active'),
  ('Cn1c(=O)c2[nH]cnc2n(C)c1=O', 'inactive');

Lab log entry: Clc1ccc2nsnc2c1NC1=NCCN1 — outcome as called in the assay?
inactive

----------
# procedure.summary: qHTS of pediatric cancer cell lines to identify multiple opportunities for drug repurposing: Primary screen for Rh18 cells (AID 1347102); also: nearly all actives have a fitted effect of over 65% in size
# assay.conditions: Rh18 rhabdomyosarcoma viability, CellTiter-Glo luminescence, 48 h; series mostly up to 46 µM
Records with an inconclusive call do not appear. The source made the active and inactive calls. Calls follow the shape of the dose curve; as a rule, active = well fitted cell-killing curve with a large enough effect; inconclusive = small, poorly fitted or top-dose-only effect; inactive = flat fitted curve, though single readings scatter.
Bench note: report the call from class 1 (active), class 0 (inactive)

INSERT INTO assay_data (molecule, label_value) VALUES
  ('N[C@@H](Cc1c[nH]c2ccc(O)cc12)C(=O)O', 'class 0'),
  ('NC(=O)NO', 'class 0'),
  ('CN(C)C(=O)C(CCN1CCC(O)(c2ccc(Cl)cc2)CC1)(c1ccccc1)c1ccccc1', 'class 1'),
  ('CC1COc2c(N3CCN(C)CC3)c(F)cc3c(=O)c(C(=O)O)cn1c23 (stereo not given)', 'class 0'),
  ('CCOC(=O)C(C)(C)Oc1ccc(Cl)cc1', 'class 0'),
  ('CN1C2CCC1CC(OC(=O)C(CO)c1ccccc1)C2 (stereo not given)', 'class 0');

Lab log entry: CC(=O)OCC(CCn1cnc2cnc(N)nc21)COC(C)=O — outcome as called in the assay?
class 0

----------
# procedure.summary: Quantitative High-Throughput drug screen in 47 multiple myeloma cell lines against the NCATS MIPE library collection: OCIMY7_PLB cell viability assay (AID 1918987); also: nearly all actives have a fitted effect of over 65% in size
# assay.conditions: OCI-MY7 myeloma viability, CellTiter-Glo ATP, 48 h; series mostly up to 45.8 µM
# Description: PI: Beverly A. Mock Ph.D. Laboratory of Cancer Biology and Genetics, Center for Cancer Research, National Cancer Institute, National Institute of Health, Bethesda, Maryland […] 5; Detector; 425V; Luminescence; Viewlux PerkinElmer. […] 1. […] Briefly, the corresponding myeloma cell lines were screened in 1,536-well plates with 500 cells, 5-uL per well for inhibition of cell viability (assessed by measuring ATP levels with CellTiterGlo). […]
Inconclusive results are not listed. The source made the active and inactive calls. Calls come from the whole dose curve; as a rule, active = well fitted cell-killing curve with a large enough effect; inconclusive = small, poorly fitted or top-dose-only effect, or effect the other way; inactive = no such curve, though single readings can be large or run the other way.
Bench note: report the call from yes (1) = active, no (0) = inactive

Past entries and their recorded results:
INSERT INTO assay_data (molecule, label_value) VALUES
  ('CN1C2CCC1CC(OC(=O)C(CO)c1ccccc1)C2 (centres undefined)', 'no (0)'),
  ('COc1nc(C)nc(Cl)c1NC1=NCCN1', 'yes (1)'),
  ('CCN1CCCC1CNC(=O)c1cc(S(=O)(=O)CC)c(N)cc1OC (centres undefined)', 'no (0)'),
  ('Cc1ccc(-c2cc(C(F)(F)F)nn2-c2ccc(S(N)(=O)=O)cc2)cc1', 'yes (1)'),
  ('O=c1[nH]cc(F)c(=O)[nH]1', 'yes (1)'),
  ('Nc1ccn([C@H]2CC[C@@H](CO)O2)c(=O)n1', 'yes (1)'),
  ('Cn1ccc2cc3c(cc21)CCN3C(=O)Nc1cccnc1', 'yes (1)'),
  ('CC(CCc1ccc(O)cc1)NCCc1ccc(O)c(O)c1 (centres undefined)', 'yes (1)');

Lab log entry: CC(C)C(=O)Nc1ccc([N+](=O)[O-])c(C(F)(F)F)c1 — outcome as called in the assay?
yes (1)

Lab log entry: Cc1cc(C(C)(C)C)cc(C)c1CC1=NCCN1 — outcome as called in the assay?
no (0)

Lab log entry: CN(C)CCOC(c1ccccc1)c1ccccc1 — outcome as called in the assay?
yes (1)

Lab log entry: CN1CCN(CCCN2c3ccccc3Sc3ccc(Cl)cc32)CC1 — outcome as called in the assay?
yes (1)

Lab log entry: COc1cc2nc(N3CCN(C(=O)c4ccco4)CC3)nc(N)c2cc1OC — outcome as called in the assay?
yes (1)

Lab log entry: Nc1nc2c(ncn2COC(CO)CO)c(=O)[nH]1 — outcome as called in the assay?
yes (1)

----------
# procedure.summary: qHTS of pediatric cancer cell lines to identify multiple opportunities for drug repurposing: Primary screen for Saos-2 cells (AID 1347097); also: nearly all actives have a fitted effect of over 40% in size
# assay.conditions: Saos-2 viability, CellTiter-Glo ATP luminescence, 48 h; series mostly up to 46 µM
Results filed as inconclusive are left out. Activity calls are given as the source filed them. Calls follow the shape of the dose curve; as a rule, active = well fitted cell-killing curve with a large enough effect; inconclusive = small, poorly fitted or top-dose-only effect; inactive = no such curve, though single readings can be large or run the other way.
Bench note: report the call from active, inactive

INSERT INTO assay_data (compound, label_value) VALUES
  ('CCC1(C)CC(=O)NC1=O (stereo not drawn)', 'inactive'),
  ('CN(C)CCC=C1c2ccccc2C=Cc2ccccc21', 'active'),
  ('CS(=O)(=O)Nc1ccc([N+](=O)[O-])cc1Oc1ccccc1', 'inactive'),
  ('CC1(CN2CCC(n3c(=O)[nH]c4ccccc43)CC2)OCc2ccccc2-n2cccc21 (stereo not drawn)', 'inactive'),
  ('CC(C)(Oc1ccc(C2CC2(Cl)Cl)cc1)C(=O)O (stereo not drawn)', 'inactive');

Lab log entry: CC12CC3CC(C)(C1)CC(N)(C3)C2 — outcome as called in the assay?
inactive

Lab log entry: Cn1c(=O)c2c(ncn2C)n(C)c1=O — outcome as called in the assay?
inactive

Lab log entry: CCc1cccc2c3c([nH]c12)C(CC)(CC(=O)O)OCC3 (stereo not drawn) — outcome as called in the assay?
inactive

Lab log entry: CN(C)CCOC(c1ccccc1)c1ccccc1 — outcome as called in the assay?
inactive

Lab log entry: N[C@@H](Cc1c[nH]c2ccc(O)cc12)C(=O)O — outcome as called in the assay?
inactive

Lab log entry: NC(CO)C(=O)NNCc1ccc(O)c(O)c1O (stereo not drawn) — outcome as called in the assay?
inactive

Lab log entry: NS(=O)(=O)c1cc2c(cc1Cl)NCNS2(=O)=O — outcome as called in the assay?
inactive

----------
# subject.of.test: Atrial natriuretic peptide receptor 1 (Homo sapiens) (UniProt P16066)
# Sequence (P16066 whole entry, looked up): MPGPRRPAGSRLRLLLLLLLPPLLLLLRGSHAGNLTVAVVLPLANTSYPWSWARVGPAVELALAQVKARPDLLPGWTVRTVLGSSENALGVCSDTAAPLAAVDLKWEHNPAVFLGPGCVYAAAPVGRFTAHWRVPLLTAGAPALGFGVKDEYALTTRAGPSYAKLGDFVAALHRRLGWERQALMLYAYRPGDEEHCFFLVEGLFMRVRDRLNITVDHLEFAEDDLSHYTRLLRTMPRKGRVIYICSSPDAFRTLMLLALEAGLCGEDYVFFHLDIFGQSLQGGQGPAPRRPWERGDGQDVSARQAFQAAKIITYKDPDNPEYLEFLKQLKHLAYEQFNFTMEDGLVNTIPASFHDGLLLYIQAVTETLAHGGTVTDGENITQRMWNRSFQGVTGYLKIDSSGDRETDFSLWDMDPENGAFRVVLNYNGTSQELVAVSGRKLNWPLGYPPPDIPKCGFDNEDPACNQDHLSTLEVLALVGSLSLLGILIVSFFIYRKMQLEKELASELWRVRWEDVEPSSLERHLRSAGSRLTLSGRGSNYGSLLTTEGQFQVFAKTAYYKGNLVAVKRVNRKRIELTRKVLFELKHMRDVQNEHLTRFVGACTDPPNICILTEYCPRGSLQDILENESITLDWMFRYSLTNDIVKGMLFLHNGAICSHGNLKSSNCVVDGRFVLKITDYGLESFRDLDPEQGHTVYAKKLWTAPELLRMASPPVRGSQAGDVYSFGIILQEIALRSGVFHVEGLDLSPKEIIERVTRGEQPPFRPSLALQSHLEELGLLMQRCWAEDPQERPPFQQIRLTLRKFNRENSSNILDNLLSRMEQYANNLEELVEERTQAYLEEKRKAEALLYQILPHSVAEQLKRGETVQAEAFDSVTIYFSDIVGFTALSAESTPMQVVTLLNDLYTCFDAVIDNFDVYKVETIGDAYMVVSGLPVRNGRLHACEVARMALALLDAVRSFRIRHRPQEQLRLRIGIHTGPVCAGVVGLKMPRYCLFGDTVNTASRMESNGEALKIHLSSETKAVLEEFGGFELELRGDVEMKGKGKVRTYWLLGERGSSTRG
# procedure.summary: Natriuretic polypeptide receptor (hNpr1) antagonism - Pilot screen (AID 1347049);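 also: HEK293 cells with hNpr1 and GloSensor cGMP luciferase stimulated by 0.1 nM hNppA; agonist-evoked cGMP luminescence read 20 min after hNppA addition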
# assay.conditions: hNpr1 cells, antagonist mode cGMP read-out; series mostly up to 57.5 µM
Records with an inconclusive call do not appear. Active and inactive are the calls of the source. Calls follow the shape of the full dose curve.
Bench note: report the call from class 1 for active, class 0 for inactive

INSERT INTO results (compound, label_value) VALUES
  ('COc1ccc(C2CNC(=O)C2)cc1OC1CCCC1 (configuration not stated)', 'class 0');

Lab log entry: CC1COc2c(N3CCN(C)CC3)c(F)cc3c(=O)c(C(=O)O)cn1c23 (configuration not stated) — outcome as called in the assay?
class 0

Lab log entry: CN(Cc1cnc2nc(N)nc(N)c2n1)c1ccc(C(=O)N[C@@H](CCC(=O)O)C(=O)O)cc1 — outcome as called in the assay?
class 0

Lab log entry: NC(=O)OCC(COC(N)=O)c1ccccc1 — outcome as called in the assay?
class 0

Lab log entry: O=c1c(-c2ccc(O)cc2)coc2cc(O)cc(O)c12 — outcome as called in the assay?
class 0

Lab log entry: COc1ccc2c(c1)c(CC(=O)O)c(C)n2C(=O)c1ccc(Cl)cc1 — outcome as called in the assay?
class 0

Lab log entry: CC(C)NCC(O)c1ccc(O)c(O)c1 (configuration not stated) — outcome as called in the assay?
class 0

Lab log entry: Cc1ccccc1N1C(=O)c2cc(S(N)(=O)=O)c(Cl)cc2NC1C (configuration not stated) — outcome as called in the assay?
class 0

Lab log entry: Cc1cc(C(C)(C)C)c(O)c(C)c1CC1=NCCN1 — outcome as called in the assay?
class 0

Lab log entry: COc1nc(C)nc(Cl)c1NC1=NCCN1 — outcome as called in the assay?
class 0

Lab log entry: Cc1ccc(C(=O)Nc2ccc(S(=O)(=O)O)c3cc(S(=O)(=O)O)cc(S(=O)(=O)O)c23)cc1NC(=O)c1cccc(NC(=O)Nc2cccc(C(=O)Nc3cc(C(=O)Nc4ccc(S(=O)(=O)O)c5cc(S(=O)(=O)O)cc(S(=O)(=O)O)c45)ccc3C)c2)c1 — outcome as called in the assay?
class 0

Lab log entry: CC12CC3CC(C)(C1)CC(N)(C3)C2 — outcome as called in the assay?
class 0

Lab log entry: Fc1ccc([C@@H]2CCNC[C@H]2COc2ccc3c(c2)OCO3)cc1 — outcome as called in the assay?
class 0

Lab log entry: OCCN(CCO)c1nc(N2CCCCC2)c2nc(N(CCO)CCO)nc(N3CCCCC3)c2n1 — outcome as called in the assay?
class 0

Lab log entry: COc1ccccc1N1CCN(CC(O)COc2cccc3ccccc23)CC1 (configuration not stated) — outcome as called in the assay?
class 0

Lab log entry: NCCc1cnc[nH]1 — outcome as called in the assay?
class 0

Lab log entry: O=C1Cc2cc(CCN3CCN(c4nsc5ccccc45)CC3)c(Cl)cc2N1 — outcome as called in the assay?
class 0
